Tested on: Mycobacterium tuberculosis
Assay: Antitubercular activity against Mycobacterium tuberculosis H37Rv ATCC 27294 after 5 days by microplate alamar blue assay
Type: functional
Details: H37Rv ATCC 27294, 120 h
attributeMeasured: MIC (µg/mL)
Numeric only. Scale: µg/mL

Here are 4 molecules together with their reported answers.
Cn1c(=O)c2ncn(Cc3cc(=O)oc4ccc(C(C)(C)C)cc34)c2n(C)c1=O: 0.48
Cn1c(=O)c2ncn(Cc3cc(=O)oc4ccc(Br)cc34)c2n(C)c1=O: 3.9
Cc1ccc2c(Cn3cnc4c(=O)n(C)c(=O)n(C)c43)cc(=O)oc2c1: 1.95
Cc1cc(C)c2c(Cn3cnc4c(=O)n(C)c(=O)n(C)c43)cc(=O)oc2c1: 0.97

Inquiry: Please report MIC for the following molecule: `Cn1c(=O)c2ncn(Cc3cc(=O)oc4ccc(Cl)cc34)c2n(C)c1=O`
Reply text: 3.9
